System: SR
Assay Overview: NCI tumour cell line growth inhibition, 48 h
Active and inactive are the calls of the source. No stated cut-off is given here; in the data, active = GI50 up to about 1.1 µM and inactive = higher.
Overview of reported GI50 across a group of molecules:

| Molecule | GI50 |
| --- | --- |
| Cc1cccc2c1C/C(=C\c1cccc(C)c1C(=O)O)C2=O | 54.7 µM (inactive) |
| CC(=O)OCC1OC(n2c(-c3ccc(C)cc3)cc(-c3ccco3)c(C#N)c2=S)C(OC(C)=O)C(OC(C)=O)C1OC(C)=O (configuration not stated) | > 100 µM (inactive) |
| COc1cccc(C2CC(=O)c3cccn32)c1 (configuration not stated) | > 100 µM (inactive) |
| CN/N=C(\C)CC(=O)Nc1cccc(Cl)c1C | 28.6 µM (inactive) |
| N#CC(C#N)=Cc1cccc(Oc2ccccc2)c1 | 8.93 µM (inactive) |
| C/C(=N\NC(=S)N1CCN(c2ccccn2)CC1)c1ccccn1 | 0.0522 µM (active) |
| COC(=O)c1c(OC(C)=O)ccc2c1c1c(OC(C)=O)c3ccccc3c(OC(C)=O)c1n2Cc1ccccc1 | 1.64 µM (inactive) |
| Cc1nc2c(nc1C)-c1[nH]c3c(c1C(=O)C2=O)CCCC3=O | 2.08 µM (inactive) |
| CCCc1n[nH]c(=O)n1N1C(=O)C=CC1=O | > 100 µM (inactive) |
| Nc1n[nH]c2nc3ccccc3nc12 | 20 µM (inactive) |
| NS(=O)(=O)c1ccc(NNC(=O)c2cccc3c(=O)c4ccccc4[nH]c23)cc1 | 49.8 µM (inactive) |
| Cc1ccc(SCC(CF)OC(C)n2cnc3c(Cl)nc(N)nc32)cc1 (configuration not stated) | 40 µM (inactive) |
| O=C1/C(=C/c2cccs2)NC(=S)N1CN1CCCCC1 | 88.9 µM (inactive) |
| COc1cc(-c2[o+]c3cc(O)cc(OC4OC(CO)C(O)C(O)C4O)c3cc2OC2OC(CO)C(O)C(O)C2O)cc(OC)c1O (configuration not stated) | > 100 µM (inactive) |
| COc1ccc2c(c1)C(=O)[C@@](Nc1ccc(C=O)cc1)(OC)[C@@](OC)(c1ccc([N+](=O)[O-])cc1)O2 | > 10 µM (inactive) |
| CC(N/N=C(\S)N1CCCC1)c1cccnn1 (configuration not stated) | 0.378 µM (active) |
| O=C1OC(C2Cc3ccccc3C2=O)c2ccccc21 (configuration not stated) | > 100 µM (inactive) |
| CC(=O)C(C)(C)CCC(C)(C)C(C)=O | > 100 µM (inactive) |
| COc1nc2ccc(CNc3ccc(C(=O)NC(CCC(=O)O)C(=O)O)cc3)cc2nc1OC (configuration not stated) | > 100 µM (inactive) |
| c1c[nH]c(C23C4C5C6C4C2C6C53)n1 (configuration not stated) | > 100 µM (inactive) |
| COc1ccc(Nc2nc3cc(C(F)(F)F)ccc3nc2C(=O)O)cc1OC | 25.1 µM (inactive) |
| CCOC(=O)CNC(=O)C(CSC(=O)N(O)c1ccc(Br)cc1)NC(=O)CCC(N)C(=O)OCC (configuration not stated) | > 50 µM (inactive) |

---

Test system: SNB-78
Assay Overview: NCI tumour cell line growth inhibition, 48 h
Calls of active or inactive are those of the source. Rule as the data show it: active = GI50 up to about 1.1 µM and inactive = higher.
Outcomes: active, inactive

| Item Smiles | Group Label |
| --- | --- |
| O=C(Nc1c(O)[nH]c(=S)[nH]c1=O)c1ccccc1 | inactive |
| COc1ccc2c(CCNC(C)=O)c(C(C)=O)[nH]c2c1 | inactive |
| Cc1cc(N)c2cc(NC(=O)CCCCCCCCC(=O)Nc3ccc4nc(C)cc(N)c4c3)ccc2n1 | inactive |
| CCc1cc2c(c3[nH]ccc13)[C@@H](C)C[C@H]2C | inactive |
| C/C(CCN(C)C)=N/O | inactive |
| Nc1c(Cl)ncnc1NCCCCCCCCCCCCNc1ncnc(Cl)c1N | active |

---

Test system: U-251
Assay Overview: NCI tumour cell line growth inhibition, 48 h
Activity calls are given as the source filed them. Rule as the data show it: active = GI50 up to about 1.1 µM and inactive = higher.

| Molecule | GI50 |
| --- | --- |
| Cc1oc2c(c1C)S(=O)(=O)C(C#N)=C(N(C)C)N2 | > 100 µM (inactive) |
| O=S(=O)(O)c1ccc2c(/N=N/c3ccc(/N=N/c4ccccc4)cc3)c(O)c(S(=O)(=O)O)cc2c1 | > 100 µM (inactive) |
| Cc1c(C(=O)Nc2ccc(Cl)cc2)nc(N)nc1-c1cccc(Cl)c1 | > 100 µM (inactive) |
| N=C(N)NS(=O)(=O)c1ccc(NCc2c3ccccc3[n+]([O-])c3ccccc23)cc1 | 16.6 µM (inactive) |
| COC(=O)C1C(=O)O[C@@H](c2ccc(OC)cc2)C1C(=O)OC (stereo not given in full) | > 100 µM (inactive) |

---

Test system: SR
Assay Overview: NCI tumour cell line growth inhibition, 48 h
The source made the active and inactive calls. No stated cut-off is given here; in the data, active = GI50 up to about 1.1 µM and inactive = higher.
Overview of reported GI50 across a group of molecules:
Attribute Measured: GI50

| Molecule | Value Measured |
| --- | --- |
| COC(=O)C1SC[C@H]2C(=O)N(c3ccccc3)C(=O)N12 (some centres not stated) | > 100 µM (inactive) |
| O=C(O)c1ccc([N+](=O)[O-])c(P(=O)(O)O)c1 | > 100 µM (inactive) |
| Cc1cc(=O)[nH]c2cc(NC(=O)C(CCCNC(=N)N)NC(=O)OCc3ccccc3)ccc12 (configuration not stated) | > 100 µM (inactive) |
| CCOc1nc2sc3c(c2c(=O)n1CCSSCCn1c(OCC)nc2sc4c(c2c1=O)CCCC4)CCCC3 | > 100 µM (inactive) |
| O=C(CCN(CCO)CCO)Nc1ccc2c(c1)C(=O)c1ccc(NC(=O)CCN(CCO)CCO)cc1C2=O | 14.8 µM (inactive) |
| COP(=O)(OC)/C(=C/c1cn(C(C)=O)c2ccccc12)NC(C)=O | 15.8 µM (inactive) |
| C/C(=C1/N=C(c2cc([N+](=O)[O-])ccc2Cl)N(c2ccc(Br)cc2)C1=O)c1cc2ccccc2oc1=O | 14.9 µM (inactive) |
| C=CCCCCCCCCC(=O)ON(Cc1ccc(O)c(OC)c1)C(=O)C(F)(F)F | 22.9 µM (inactive) |
| O=C(N/N=C\c1ccc([N+](=O)[O-])cc1)Nc1cccc2ccccc12 | > 55.1 µM (inactive) |
| COc1cc2c(cc1OC)-c1cc3ccccc3c(=O)n1CC2 | 14.3 µM (inactive) |
| Cc1nc(-c2cc3ccccc3oc2=O)cs1 | 59 µM (inactive) |
| COc1ccc2c(CCNC(C)=O)c(C(C)=O)[nH]c2c1 | > 100 µM (inactive) |
| O=C1C(Cl)N(c2ccccc2)C1c1c[nH]c2ccccc12 (configuration not stated) | > 100 µM (inactive) |
| COC[C@@H](/N=C/N1CCc2cc(OC)c(OC)cc2[C@@H]1C)C(C)(C)C | > 100 µM (inactive) |
| NP(=O)(Oc1c2occc2cc2ccc(=O)oc12)N(CCCl)CCCl (configuration not stated) | 38.5 µM (inactive) |
| O=C(O)CCC(=O)c1ccc[nH]1 | > 100 µM (inactive) |
| CN(C)C1(C#N)CCC2(CC1)OCCO2 | > 100 µM (inactive) |
| Cc1nn(C(=O)c2ccccc2O)c2c1C(c1ccc(O)cc1O)SC(=N)N2 (configuration not stated) | 6.67 µM (inactive) |
| CC(C)(Cc1ccccc1)NC1=NCCO1 | > 100 µM (inactive) |
| c1ccc(/N=C2\SC3=NCCN3\C2=N/c2ccccc2)cc1 | 21.4 µM (inactive) |
| CC(C)NC(=O)O/N=C1\CCC2[C@@H]3CC=C4C[C@@H](OC(=O)NC(C)C)CC[C@]4(C)C3CC[C@]12C (some centres not stated) | 1.2 µM (inactive) |
| C=CCN1C(=O)/C(=C/c2ccco2)N=C1SC/C=C/C | 21.6 µM (inactive) |

---

Overview of reported GI50 across a group of compounds:
Test system: NCI-H226
Assay Overview: NCI tumour cell line growth inhibition, 48 h
Activity calls are given as the source filed them. Rule as the data show it: active = GI50 up to about 1.1 µM and inactive = higher. Peptide text beside a SMILES is read from it. * marks the point of attachment. Cbz = O=C(OCc1ccccc1)*; CH2Cl = ClC*

| Compound | GI50 |
| --- | --- |
| O=[N+]([O-])C(=C/c1ccccc1)/C(=C\c1ccccc1)[N+](=O)[O-] | 19.1 µM (inactive) |
| CN(C)c1ccc(/C=N/c2ccc(-c3nc4ccccc4s3)cc2)cc1 | 32 µM (inactive) |
| CNC(=O)N1CCN(C(=O)NC)CCN(C(=O)NC)CC1 | > 100 µM (inactive) |
| CCOC(=O)C1N(S(=O)(=O)c2ccc(C)cc2)CCC12c1ccccc1N(C(C)=O)C2c1ccc(OC)c(OC)c1 (stereo not given) | 19.9 µM (inactive) |
| NC1=C(N2CCOCC2)C(=O)NC2=N/C(=C\c3ccccc3)C(=O)N21 | 97.9 µM (inactive) |
| COC(OC)C1OC(CO)C(n2cc(F)c(=O)[nH]c2=O)C1O (stereo not given) | > 100 µM (inactive) |
| COc1ccc2oc(=N)c(C(=O)NCc3ccccc3)cc2c1 | 22.7 µM (inactive) |
| O=C1CC(C(O)C(O)C(O)CO)CC(=O)N1 (stereo not given) | > 100 µM (inactive) |
| CC(C)CC(NC(=O)OCc1ccccc1)C(=O)NC(Cc1ccccc1)C(=O)CCl (stereo not drawn) (Cbz-Leu-Phe-CH2Cl; configuration not given here) | 1.91 µM (inactive) |
| CC(C(=O)c1ccccc1)C1(O)C(=O)Nc2ccc(Cl)cc21 (stereo not given) | > 100 µM (inactive) |
